Item-by-item account of inhibition of SARS-CoV-2 cytopathic effect
system: Vero E6 infected with SARS-CoV-2; assay: inhibition of SARS-CoV-2 cytopathic effect; higher = more antiviral protection, active = above 15; details: 833.33 nM; 48 h
reportedProperty: inhibition of SARS-CoV-2 cytopathic effect (%)

compound: O=C(NOCC(O)CO)c1cc(Br)c(F)c(F)c1Nc1ccc(I)cc1F (stereo not drawn)
outputUnit: %
measurement: -10

compound: CC12CC3CC(C)(C1)CC(N)(C3)C2 [memantine]
outputUnit: %
measurement: 2

compound: CCCCCCCCc1ccc(CCC(N)(CO)CO)cc1
outputUnit: %
measurement: -4

compound: N#Cc1c(O)c2c(-c3ccc(-c4ccccc4O)cc3)csc2[nH]c1=O
outputUnit: %
measurement: 0.75

compound: CCn1cnc2c(Nc3cccc(Cl)c3)nc(N[C@@H]3CCCC[C@@H]3N)nc21
outputUnit: %
measurement: 3.13

compound: CS(=O)(=O)c1ccc(Cn2c3c(c4cc(F)cc(F)c42)CCCC3CC(=O)O)cc1 (stereo not drawn)
outputUnit: %
measurement: 1.36

compound: O=c1[nH]c(=O)n([C@H]2C[C@H](O)[C@@H](CO)O2)cc1F
outputUnit: %
measurement: -2.04

compound: CCC(C)(Oc1ccc(C2(c3ccc(OC(C)(CC)C(=O)O)cc3)CCCCC2)cc1)C(=O)O (stereo not drawn) [clinofibrate]
outputUnit: %
measurement: -1.83
